Known AC50 of a selection of molecules
Biological target: Kappa-type opioid receptor (Homo sapiens, UniProt P41145); note: assay procedure not described here
Sequence (P41145 whole entry): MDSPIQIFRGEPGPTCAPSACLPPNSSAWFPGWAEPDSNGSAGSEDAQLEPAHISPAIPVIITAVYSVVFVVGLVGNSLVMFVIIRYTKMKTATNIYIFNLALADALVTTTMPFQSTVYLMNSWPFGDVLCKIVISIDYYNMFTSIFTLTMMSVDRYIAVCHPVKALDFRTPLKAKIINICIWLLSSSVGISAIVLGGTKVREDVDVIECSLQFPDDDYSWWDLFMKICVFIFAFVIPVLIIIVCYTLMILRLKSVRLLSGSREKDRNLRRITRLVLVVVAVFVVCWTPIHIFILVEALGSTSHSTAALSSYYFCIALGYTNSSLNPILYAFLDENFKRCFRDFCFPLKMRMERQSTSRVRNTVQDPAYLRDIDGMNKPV

C[C@@H](Cc1ccccc1)N(C)Cc1ccccc1 [BENZPHETAMINE]; 1.97 µM

# value of AC50, Kappa-type opioid receptor (Homo sapiens, UniProt P41145), item CCC1(C)CC(=O)NC1=O (stereo not given) [ETHOSUXIMIDE] = > 10 µM

I looked up C[C@]12CCC(=O)C=C1C=C[C@@H]1[C@@H]2CC[C@@]2(C)[C@H]1CC[C@@]21CCC(=O)O1 [CANRENONE] and its AC50 for Kappa-type opioid receptor (Homo sapiens, UniProt P41145) was 19 µM

Known value: Kappa-type opioid receptor (Homo sapiens, UniProt P41145) AC50 of the molecule CC(=O)Oc1cccc2c1C(=O)c1c(OC(C)=O)cc(C(=O)O)cc1C2=O [DIACEREIN] equals > 30 µM

* * *

Molecular target: Sodium channel protein type 5 subunit alpha (Homo sapiens, UniProt Q14524); note: assay procedure not described here
Sequence (Q14524 whole entry): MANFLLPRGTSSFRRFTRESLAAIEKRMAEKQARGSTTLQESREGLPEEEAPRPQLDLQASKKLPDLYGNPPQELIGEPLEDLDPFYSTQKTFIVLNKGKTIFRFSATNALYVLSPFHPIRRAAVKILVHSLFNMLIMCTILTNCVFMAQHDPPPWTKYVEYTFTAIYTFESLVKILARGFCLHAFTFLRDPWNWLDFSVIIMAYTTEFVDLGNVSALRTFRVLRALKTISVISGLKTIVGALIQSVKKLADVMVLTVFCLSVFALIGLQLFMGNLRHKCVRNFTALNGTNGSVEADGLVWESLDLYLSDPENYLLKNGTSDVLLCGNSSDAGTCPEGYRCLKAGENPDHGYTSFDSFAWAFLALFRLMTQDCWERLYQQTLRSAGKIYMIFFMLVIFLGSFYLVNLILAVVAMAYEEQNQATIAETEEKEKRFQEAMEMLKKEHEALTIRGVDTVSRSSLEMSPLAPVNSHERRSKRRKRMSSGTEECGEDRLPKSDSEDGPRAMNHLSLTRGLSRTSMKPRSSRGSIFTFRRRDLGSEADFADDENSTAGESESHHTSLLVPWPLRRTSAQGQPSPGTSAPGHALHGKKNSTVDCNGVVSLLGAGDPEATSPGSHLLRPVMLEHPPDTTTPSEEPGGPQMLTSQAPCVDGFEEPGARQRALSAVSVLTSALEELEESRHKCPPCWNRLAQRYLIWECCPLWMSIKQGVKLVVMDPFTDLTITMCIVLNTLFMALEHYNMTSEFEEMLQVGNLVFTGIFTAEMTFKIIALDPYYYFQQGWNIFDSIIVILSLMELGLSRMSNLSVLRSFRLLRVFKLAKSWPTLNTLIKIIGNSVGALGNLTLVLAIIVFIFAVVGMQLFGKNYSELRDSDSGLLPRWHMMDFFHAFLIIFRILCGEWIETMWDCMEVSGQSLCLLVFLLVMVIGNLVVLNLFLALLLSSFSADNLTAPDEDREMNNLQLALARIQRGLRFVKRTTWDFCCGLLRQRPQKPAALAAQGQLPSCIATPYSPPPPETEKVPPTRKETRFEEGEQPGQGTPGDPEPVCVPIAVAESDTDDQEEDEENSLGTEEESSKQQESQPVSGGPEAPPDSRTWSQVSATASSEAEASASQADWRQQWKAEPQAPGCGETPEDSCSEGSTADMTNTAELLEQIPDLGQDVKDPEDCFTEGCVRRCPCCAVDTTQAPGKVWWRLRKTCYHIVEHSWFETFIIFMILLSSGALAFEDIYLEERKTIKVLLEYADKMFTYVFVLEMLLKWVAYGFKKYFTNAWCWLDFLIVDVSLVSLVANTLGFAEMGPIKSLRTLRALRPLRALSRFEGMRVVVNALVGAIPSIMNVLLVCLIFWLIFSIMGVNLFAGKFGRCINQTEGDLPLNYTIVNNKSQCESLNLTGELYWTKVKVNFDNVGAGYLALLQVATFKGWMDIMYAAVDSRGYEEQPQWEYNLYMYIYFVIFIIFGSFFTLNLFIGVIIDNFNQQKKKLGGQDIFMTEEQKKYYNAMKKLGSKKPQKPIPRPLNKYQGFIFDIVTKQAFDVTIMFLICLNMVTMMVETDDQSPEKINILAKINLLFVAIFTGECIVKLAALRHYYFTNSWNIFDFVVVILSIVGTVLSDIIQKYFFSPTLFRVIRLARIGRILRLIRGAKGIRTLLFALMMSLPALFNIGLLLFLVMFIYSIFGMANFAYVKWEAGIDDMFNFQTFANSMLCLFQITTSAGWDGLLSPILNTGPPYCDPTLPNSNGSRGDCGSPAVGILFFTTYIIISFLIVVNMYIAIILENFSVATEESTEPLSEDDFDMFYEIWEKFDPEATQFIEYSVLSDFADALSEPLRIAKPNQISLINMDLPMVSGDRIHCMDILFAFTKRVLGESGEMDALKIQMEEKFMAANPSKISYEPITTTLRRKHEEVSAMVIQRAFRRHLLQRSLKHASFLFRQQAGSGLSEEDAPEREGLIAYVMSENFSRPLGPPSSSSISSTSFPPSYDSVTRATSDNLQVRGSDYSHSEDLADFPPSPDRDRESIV
Type: functional, cell-based
quantity_name: AC50 (µM)
Note: unit µM is implicit; provide only the numeric part.

CN1CC2c3ccccc3Oc3ccc(Cl)cc3C2C1 (stereo not drawn); 2
COC(=O)c1ccc2c(c1)NC(=O)/C2=C(\Nc1ccc(N(C)C(=O)CN2CCN(C)CC2)cc1)c1ccccc1; 13
O=C1[C@@H]2[C@H]3CC[C@H](C3)[C@@H]2C(=O)N1C[C@@H]1CCCC[C@H]1CN1CCN(c2nsc3ccccc23)CC1; 41

For this compound ( CN(C)CCC=C1c2ccccc2CCc2ccccc21 ), measured AC50 is 1.81

* * *

# AC50 per entry for Glutamate receptor ionotropic, NMDA 1 (Rattus norvegicus, UniProt P35439)

CN(C)CCOCC(=O)NC12CC3CC(CC(C3)C1)C2; > 30 µM
CC(C)CN(C[C@@H](O)[C@H](Cc1ccccc1)NC(=O)O[C@H]1CCOC1)S(=O)(=O)c1ccc(N)cc1; > 10 µM
CCN(CC)CCn1c(=O)c(Cc2ccc(OC)cc2)nc2ccccc21; > 30 µM
Oc1cc(O)c2c(c1)O[C@H](c1ccc(O)c(O)c1)[C@@H](O)C2; > 10 µM

response.value for NCCCCCC(=O)O (field: AC50) = > 10 µM

Sample C[C@]12C=CC(=O)C=C1CC[C@@H]1[C@@H]2[C@@H](O)C[C@@]2(C)[C@H]1CC[C@]2(O)C(=O)CO ; AC50 observed: > 10 µM

In plain terms, CCNC(=O)CCC/C=C\C[C@@H]1[C@@H](/C=C/[C@@H](O)CCc2ccccc2)[C@H](O)C[C@@H]1O has a documented AC50 of > 30 µM

Field AC50 (entry O=C(O)c1ccc2nc(-c3cc(Cl)cc(Cl)c3)oc2c1 ) reads > 30 µM

For reference, reported AC50 for Cc1ccc(O)c([C@H](CCN(C(C)C)C(C)C)c2ccccc2)c1 stands at > 10 µM

AC50 reported for this compound Cc1ccc(S(=O)(=O)NC(=O)N[C@H]2[C@H]3CC[C@@](C)([C@H]2O)C3(C)C)cc1 [GLIBORNURIDE] : > 30 µM

Recorded AC50 (compound CN(C)[C@@H]1C(O)=C(C(=O)NCN2CCCC2)C(=O)[C@@]2(O)C(O)=C3C(=O)c4c(O)cccc4[C@@](C)(O)[C@H]3C[C@@H]12 ): > 10 µM

Measured AC50 of N[C@@H](Cc1cc(I)c(Oc2cc(I)c(O)c(I)c2)c(I)c1)C(=O)O : > 30 µM

CN(C)CCOC(=O)C(c1ccccc1)C1(O)CCCC1 (centres undefined) [CYCLOPENTOLATE] yielded AC50 of > 10 µM

Entry O=C(Cc1cccs1)N[C@@H]1C(=O)N2C(C(=O)[O-])=C(C[n+]3ccccc3)CS[C@H]12 ; AC50 = > 30 µM

So, CCCCOC(=O)c1ccc(N)cc1 ? Its AC50 was > 30 µM

Lab note: measured AC50 of N=C(N)NC(=O)Cc1c(Cl)cccc1Cl was > 30 µM

AC50 reported for this compound C[C@]12C=CC(=O)C=C1C(Cl)=C[C@@H]1[C@@H]2[C@@H](O)C[C@@]2(C)[C@H]1CC[C@]2(O)C(=O)CO : > 30 µM

In plain terms, CCN1C(=O)NC(c2ccccc2)C1=O (centres undefined) has a documented AC50 of > 30 µM

Reported AC50 of CCOC(=O)C1=C(C)NC(C)=C(C(=O)OC)C1c1cccc(Cl)c1Cl (centres undefined) : > 10 µM

Reported AC50 for CO/N=C(\C(=O)N[C@@H]1C(=O)N2C(C(=O)O)=C(CSc3nc(C)c(CC(=O)O)s3)CS[C@H]12)c1csc(N)n1 was > 30 µM

The compound listed as CCCCCCOC(=O)NC(=N)c1ccc(NCc2nc3cc(C(=O)N(CCC(=O)OCC)c4ccccn4)ccc3n2C)cc1 [DABIGATRAN ETEXILATE] shows AC50 equal to > 30 µM

* * *

Target: Alpha-2C adrenergic receptor (Homo sapiens, UniProt P18825); note: assay procedure not described here
Sequence (P18825 whole entry): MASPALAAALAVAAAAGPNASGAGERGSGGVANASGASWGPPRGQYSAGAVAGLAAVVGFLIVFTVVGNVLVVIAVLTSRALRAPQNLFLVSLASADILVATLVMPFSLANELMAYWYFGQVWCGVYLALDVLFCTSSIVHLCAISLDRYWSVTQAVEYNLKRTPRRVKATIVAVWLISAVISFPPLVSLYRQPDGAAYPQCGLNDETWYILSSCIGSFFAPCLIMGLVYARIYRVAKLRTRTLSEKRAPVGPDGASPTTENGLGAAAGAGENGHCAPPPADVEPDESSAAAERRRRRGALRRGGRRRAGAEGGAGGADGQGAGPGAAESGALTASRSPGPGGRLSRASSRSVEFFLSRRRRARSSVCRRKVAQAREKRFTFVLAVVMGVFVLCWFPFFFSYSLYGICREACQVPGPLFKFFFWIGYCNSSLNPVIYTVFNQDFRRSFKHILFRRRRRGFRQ
Assay type: functional
quantity_name: AC50

CNC1(C)C2CCC(C2)C1(C)C (centres undefined); > 10 µM

AC50 reported for this compound CC(NC(C)(C)C)C(=O)c1cccc(Cl)c1 (centres undefined) : > 10 µM

Item: CC[N+](CC)(CCNC(=O)C(=O)NCC[N+](CC)(CC)Cc1ccccc1Cl)Cc1ccccc1Cl | AC50: 2.5 µM

The recorded AC50 for Oc1cc(O)c2c(c1)O[C@H](c1ccc(O)c(O)c1)[C@@H](O)C2 is > 10 µM

Lab note: Cc1cn(-c2cc(NC(=O)c3ccc(C)c(Nc4nccc(-c5cnccn5)n4)c3)cc(C(F)(F)F)c2)cn1 gave AC50 of > 30 µM

* * *

Target: Voltage-dependent L-type calcium channel subunit alpha-1C (Rattus norvegicus); note: assay procedure not described here
Assay type: functional
Reported AC50 values for the following molecules.

Solved cases (6 shown):
CNC1(C)C2CCC(C2)C1(C)C (stereo not drawn) [MECAMYLAMINE]; > 10 µM
COc1ccc(-c2cc(=S)ss2)cc1 [ANETHOLTRITHION]; > 30 µM
CN(C)[C@@H]1C(O)=C(C(=O)NCN2CCCC2)C(=O)[C@@]2(O)C(O)=C3C(=O)c4c(O)cccc4[C@@](C)(O)[C@H]3C[C@@H]12 [ROLITETRACYCLINE]; > 10 µM
CC(=O)Oc1cccc2c1C(=O)c1c(OC(C)=O)cc(C(=O)O)cc1C2=O [DIACEREIN]; > 30 µM
CO/N=C(\C(=O)N[C@@H]1C(=O)N2C(C(=O)[O-])=C(C[n+]3ccc(N)n3CCO)CS[C@H]12)c1csc(N)n1 [CEFOSELIS]; > 30 µM
CC(=O)N1CCN(c2ccc(OCC3COC(Cn4ccnc4)(c4ccc(Cl)cc4Cl)O3)cc2)CC1 (stereo not drawn) [KETOCONAZOLE]; > 10 µM

Log: Voltage-dependent L-type calcium channel subunit alpha-1C (Rattus norvegicus), molecule CN1C(=O)CN=C(c2ccccc2F)c2cc([N+](=O)[O-])ccc21 [FLUNITRAZEPAM] , AC50 = > 10 µM

Lab entry: Voltage-dependent L-type calcium channel subunit alpha-1C (Rattus norvegicus) assay, molecule CC(=O)Oc1ccccc1C(=O)O [ASPIRIN] , AC50 = > 10 µM

* * *

Molecular target: Voltage-dependent L-type calcium channel subunit alpha-1C (Rattus norvegicus, UniProt P22002); note: assay procedure not described here
Sequence (P22002 whole entry): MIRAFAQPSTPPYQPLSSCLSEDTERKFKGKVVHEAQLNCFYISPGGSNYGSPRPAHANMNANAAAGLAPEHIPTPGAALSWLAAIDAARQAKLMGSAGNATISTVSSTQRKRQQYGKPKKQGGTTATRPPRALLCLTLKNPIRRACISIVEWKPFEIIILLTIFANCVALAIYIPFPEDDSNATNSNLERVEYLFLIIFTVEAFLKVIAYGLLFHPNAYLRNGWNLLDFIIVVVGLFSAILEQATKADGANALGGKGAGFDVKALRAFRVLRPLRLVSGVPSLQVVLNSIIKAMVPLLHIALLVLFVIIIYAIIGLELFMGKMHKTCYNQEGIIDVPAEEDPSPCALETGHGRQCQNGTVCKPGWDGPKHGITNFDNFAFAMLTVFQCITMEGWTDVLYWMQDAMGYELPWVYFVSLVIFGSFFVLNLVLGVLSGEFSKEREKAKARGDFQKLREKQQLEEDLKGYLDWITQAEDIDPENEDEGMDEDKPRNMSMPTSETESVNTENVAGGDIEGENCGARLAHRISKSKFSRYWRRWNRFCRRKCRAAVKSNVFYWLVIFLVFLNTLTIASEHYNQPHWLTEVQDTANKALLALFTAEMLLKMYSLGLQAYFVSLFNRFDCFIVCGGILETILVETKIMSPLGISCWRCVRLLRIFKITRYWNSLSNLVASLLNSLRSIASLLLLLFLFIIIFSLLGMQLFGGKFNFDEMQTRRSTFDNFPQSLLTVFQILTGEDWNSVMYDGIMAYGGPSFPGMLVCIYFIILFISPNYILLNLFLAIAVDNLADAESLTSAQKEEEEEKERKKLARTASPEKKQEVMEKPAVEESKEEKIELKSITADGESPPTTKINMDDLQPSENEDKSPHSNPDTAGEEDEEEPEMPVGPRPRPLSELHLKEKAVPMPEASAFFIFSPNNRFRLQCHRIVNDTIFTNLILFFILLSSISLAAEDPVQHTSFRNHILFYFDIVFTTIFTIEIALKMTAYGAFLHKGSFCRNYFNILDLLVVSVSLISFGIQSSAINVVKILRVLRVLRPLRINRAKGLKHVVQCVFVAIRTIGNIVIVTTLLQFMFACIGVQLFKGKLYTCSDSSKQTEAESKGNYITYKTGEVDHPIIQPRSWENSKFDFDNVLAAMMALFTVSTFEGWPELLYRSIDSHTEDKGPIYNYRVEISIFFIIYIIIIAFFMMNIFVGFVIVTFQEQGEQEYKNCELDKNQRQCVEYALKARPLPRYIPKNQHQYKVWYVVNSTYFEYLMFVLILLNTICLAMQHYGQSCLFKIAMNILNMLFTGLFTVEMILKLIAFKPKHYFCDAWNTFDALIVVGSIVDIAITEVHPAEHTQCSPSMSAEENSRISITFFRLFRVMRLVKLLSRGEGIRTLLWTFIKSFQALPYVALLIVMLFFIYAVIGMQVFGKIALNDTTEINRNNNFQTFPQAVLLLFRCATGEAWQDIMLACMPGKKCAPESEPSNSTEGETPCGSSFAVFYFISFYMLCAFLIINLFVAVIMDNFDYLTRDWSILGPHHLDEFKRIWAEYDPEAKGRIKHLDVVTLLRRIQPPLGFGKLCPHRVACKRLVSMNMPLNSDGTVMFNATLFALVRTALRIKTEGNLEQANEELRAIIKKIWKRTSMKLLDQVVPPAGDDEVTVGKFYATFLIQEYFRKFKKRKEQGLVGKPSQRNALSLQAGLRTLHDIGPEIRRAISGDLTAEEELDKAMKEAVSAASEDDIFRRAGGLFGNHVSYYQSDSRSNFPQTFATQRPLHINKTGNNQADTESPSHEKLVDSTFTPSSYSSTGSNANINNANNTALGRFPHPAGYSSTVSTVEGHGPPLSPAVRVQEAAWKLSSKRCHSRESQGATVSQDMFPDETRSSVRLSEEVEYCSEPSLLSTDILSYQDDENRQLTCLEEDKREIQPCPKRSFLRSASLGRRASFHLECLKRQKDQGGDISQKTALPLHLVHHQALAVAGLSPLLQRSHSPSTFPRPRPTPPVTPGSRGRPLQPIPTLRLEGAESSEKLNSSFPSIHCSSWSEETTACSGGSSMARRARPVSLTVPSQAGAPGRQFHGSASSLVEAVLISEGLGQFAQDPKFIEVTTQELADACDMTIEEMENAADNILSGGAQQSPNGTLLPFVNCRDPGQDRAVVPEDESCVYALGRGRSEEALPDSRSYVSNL
Type: functional
quantity_name: AC50

# AC50 of CCc1ccc(C(=O)C(C)CN2CCCCC2)cc1 (stereo not given) = > 30 µM

AC50 measured on CC1(C)O[C@@H]2C[C@H]3[C@@H]4CCC5=CC(=O)C=C[C@]5(C)[C@@]4(F)[C@@H](O)C[C@]3(C)[C@]2(C(=O)CO)O1 [TRIAMCINOLONE ACETONIDE] = > 30 µM

Entry CCC(=O)c1ccc2c(c1)N(CC(C)N(C)C)c1ccccc1S2 (stereo not given) ; AC50 = > 10 µM

Values from ChEMBL document CHEMBL5291721
